assaySummary: Oral bioavailability in Sprague-Dawley rat at 5 mg/kg,po measured up to 24 hrs by LC-MS/MS analysis
Assay type: ADME, organism-based
condition: in vivo
metricName: bioavailability (%)
Write down the numeric answer in % and omit the unit.

Task: Returns the measured bioavailability for the input compound. Input: Cc1ccc(CS(=O)(=O)NC(=O)C2(C)CCN(c3nc4c(cc3C#N)C(=O)OC4)CC2)cc1
Output: 51

* * *

assaySummary: Metabolic stability in rat liver microsomes assessed as intrinsic clearance at 0.1 µM measured up to 60 mins in presence of NADPH regeneration system by LC-MS/MS analysis
condition: 1 h
metricName: intrinsic clearance (mL/min/g)
Write down the numeric answer in mL/min/g and omit the unit.

{"mol": "Cc1ccc(CS(=O)(=O)NC(=O)C2(C)CCN(c3nc4c(cc3C#N)C(=O)OC4)CC2)cc1", "metricName": "intrinsic clearance", "measureUnit": "mL/min/g", "observedResult": 10.6}

Task: Returns the measured intrinsic clearance for the input compound. Input: CC1(C(=O)NS(=O)(=O)c2ccc(Cl)s2)CCN(c2nc3c(cc2C#N)C(=O)OC3)CC1
Output: 27.6

Task: Try the compound N#Cc1cc2c(nc1N1CCC(C(=O)NS(=O)(=O)Cc3ccccc3)CC1)COC2=O
Output: 14.5

Task: Try the compound N#Cc1cc2c(nc1N1CCC(C(=O)NS(=O)(=O)c3ccc(Cl)s3)CC1)COC2=O
Output: 13.8

* * *

assaySummary: Metabolic stability in human liver microsomes assessed as intrinsic clearance at 0.1 µM measured up to 60 mins in presence of NADPH regeneration system by LC-MS/MS analysis
condition: 1 h
metricName: intrinsic clearance (mL/min/g)
Write down the numeric answer in mL/min/g and omit the unit.

Look over these answered cases.
{"mol": "N#Cc1cc2c(nc1N1CCC(C(=O)NS(=O)(=O)Cc3ccccc3)CC1)COC2=O", "metricName": "intrinsic clearance", "observedResult": 25.8}
{"mol": "Cc1ccc(CS(=O)(=O)NC(=O)C2(C)CCN(c3nc4c(cc3C#N)C(=O)OC4)CC2)cc1", "metricName": "intrinsic clearance", "observedResult": 10.1}
{"mol": "N#Cc1cc2c(nc1N1CCC(C(=O)NS(=O)(=O)c3ccc(Cl)s3)CC1)COC2=O", "metricName": "intrinsic clearance", "observedResult": 26.6}

# next molecule below
Task: Returns the measured intrinsic clearance for the input molecule. Input: CC1(C(=O)NS(=O)(=O)c2ccc(Cl)s2)CCN(c2nc3c(cc2C#N)C(=O)OC3)CC1
Output: 10.3

* * *

assaySummary: Metabolic stability in dog liver microsomes assessed as intrinsic clearance at 0.1 µM measured up to 60 mins in presence of NADPH regeneration system by LC-MS/MS analysis
condition: 1 h
intrinsic clearance overview
Write down the numeric answer in mL/min/g and omit the unit.

{"mol": "CC1(C(=O)NS(=O)(=O)c2ccc(Cl)s2)CCN(c2nc3c(cc2C#N)C(=O)OC3)CC1", "observedResult": 10.5}
{"mol": "Cc1ccc(CS(=O)(=O)NC(=O)C2(C)CCN(c3nc4c(cc3C#N)C(=O)OC4)CC2)cc1", "observedResult": 116.3}
{"mol": "N#Cc1cc2c(nc1N1CCC(C(=O)NS(=O)(=O)Cc3ccccc3)CC1)COC2=O", "observedResult": 18.2}

# next compound below
Task: Returns the measured intrinsic clearance for the input compound. Input: N#Cc1cc2c(nc1N1CCC(C(=O)NS(=O)(=O)c3ccc(Cl)s3)CC1)COC2=O
Output: 12.3

* * *

assaySummary: AUC (0 to infinity) in Sprague-Dawley rat at 5 mg/kg,po measured up to 24 hrs by LC-MS/MS analysis
Assay type: ADME, organism-based
Parameters: time < 24 hrs, dose 5 mg/kg, route po
condition: in vivo
metricName: AUC(0-inf) (ng·h/mL)
Write down the numeric answer in ng·h/mL and omit the unit.

Look over these answered cases.
{"mol": "N#Cc1cc2c(nc1N1CCC(C(=O)NS(=O)(=O)Cc3ccccc3)CC1)COC2=O", "measureUnit": "ng·h/mL", "AUC(0-inf)": 384}
{"mol": "CC1(C(=O)NS(=O)(=O)Cc2ccc(Cl)cc2)CCN(c2nc3c(cc2C#N)C(=O)OC3)CC1", "measureUnit": "ng·h/mL", "AUC(0-inf)": 1350}
{"mol": "CC1(C(=O)NS(=O)(=O)c2ccc(Cl)s2)CCN(c2nc3c(cc2C#N)C(=O)OC3)CC1", "measureUnit": "ng·h/mL", "AUC(0-inf)": 1060}
{"mol": "N#Cc1cc2c(nc1N1CCC(F)(C(=O)NS(=O)(=O)Cc3ccccc3)CC1)COC2=O", "measureUnit": "ng·h/mL", "AUC(0-inf)": 291}
{"mol": "Cc1ccc(CS(=O)(=O)NC(=O)C2(C)CCN(c3nc4c(cc3C#N)C(=O)OC4)CC2)cc1", "measureUnit": "ng·h/mL", "AUC(0-inf)": 4120}

Task: Returns the measured AUC(0-inf) for the input compound. Input: N#Cc1cc2c(nc1N1CCC(C(=O)NS(=O)(=O)c3ccc(Cl)s3)CC1)COC2=O
Output: 417

* * *

assaySummary: MRT in Sprague-Dawley rat at 5 mg/kg,po measured up to 24 hrs by LC-MS/MS analysis
Format: ADME, organism-based
condition: in vivo
Where MRT equals or exceeds 2 h, the correct label is true (1); where it does not, the label is false (0).

Take a look at these entries with their results.
{"mol": "N#Cc1cc2c(nc1N1CCC(F)(C(=O)NS(=O)(=O)Cc3ccccc3)CC1)COC2=O", "category": "true (1)"}
{"mol": "Cc1ccc(CS(=O)(=O)NC(=O)C2(C)CCN(c3nc4c(cc3C#N)C(=O)OC4)CC2)cc1", "category": "true (1)"}
{"mol": "N#Cc1cc2c(nc1N1CCC(C(=O)NS(=O)(=O)Cc3ccccc3)CC1)COC2=O", "category": "false (0)"}
{"mol": "N#Cc1cc2c(nc1N1CCC(C(=O)NS(=O)(=O)c3ccc(Cl)s3)CC1)COC2=O", "category": "true (1)"}

# input for lookup
Task: Could you verify whether the entry CC1(C(=O)NS(=O)(=O)Cc2ccc(Cl)cc2)CCN(c2nc3c(cc2C#N)C(=O)OC3)CC1 shows MRT of no less than 2 h?
Output: true (1)

* * *

half-life overview
assaySummary: Metabolic stability in rat liver microsomes assessed as half life at […] measured up to 60 mins in presence of NADPH regeneration system by LC-MS/MS analysis
Type: ADME, Microsome
Write down the numeric answer in h and omit the unit.

Look over these answered cases.
{"mol": "N#Cc1cc2c(nc1N1CCC(C(=O)NS(=O)(=O)Cc3ccccc3)CC1)COC2=O", "measureUnit": "h", "observedResult": 2.42}
{"mol": "CC1(C(=O)NS(=O)(=O)c2ccc(Cl)s2)CCN(c2nc3c(cc2C#N)C(=O)OC3)CC1", "measureUnit": "h", "observedResult": 1.27}
{"mol": "N#Cc1cc2c(nc1N1CCC(C(=O)NS(=O)(=O)c3ccc(Cl)s3)CC1)COC2=O", "measureUnit": "h", "observedResult": 2.53}

# next compound below
Task: Returns the measured half-life for the input compound. Input: Cc1ccc(CS(=O)(=O)NC(=O)C2(C)CCN(c3nc4c(cc3C#N)C(=O)OC4)CC2)cc1
Output: 1.48

* * *

half-life overview
assaySummary: Metabolic stability in dog liver microsomes assessed as half life at […] measured up to 60 mins in presence of NADPH regeneration system by LC-MS/MS analysis
Type: ADME, Canis lupus familiaris, Microsome
Write down the numeric answer in h and omit the unit.

{"mol": "N#Cc1cc2c(nc1N1CCC(C(=O)NS(=O)(=O)c3ccc(Cl)s3)CC1)COC2=O", "measureUnit": "h", "half-life": 2.85}
{"mol": "CC1(C(=O)NS(=O)(=O)c2ccc(Cl)s2)CCN(c2nc3c(cc2C#N)C(=O)OC3)CC1", "measureUnit": "h", "half-life": 3.34}
{"mol": "Cc1ccc(CS(=O)(=O)NC(=O)C2(C)CCN(c3nc4c(cc3C#N)C(=O)OC4)CC2)cc1", "measureUnit": "h", "half-life": 1.62}

# next compound below
Task: Returns the measured half-life for the input compound. Input: N#Cc1cc2c(nc1N1CCC(C(=O)NS(=O)(=O)Cc3ccccc3)CC1)COC2=O
Output: 1.93

* * *

assaySummary: Half life in Sprague-Dawley rat at 5 mg/kg,po measured up to 24 hrs by LC-MS/MS analysis
Assay type: ADME, organism-based
condition: in vivo
Could you please mark y for values of half-life below 2 h and n for values at or above it?

Take a look at these entries with their results.
{"mol": "CC1(C(=O)NS(=O)(=O)c2ccc(Cl)s2)CCN(c2nc3c(cc2C#N)C(=O)OC3)CC1", "category": "y"}
{"mol": "Cc1ccc(CS(=O)(=O)NC(=O)C2(C)CCN(c3nc4c(cc3C#N)C(=O)OC4)CC2)cc1", "category": "n"}
{"mol": "CC1(C(=O)NS(=O)(=O)Cc2ccc(Cl)cc2)CCN(c2nc3c(cc2C#N)C(=O)OC3)CC1", "category": "y"}

Task: API: query returns whether the compound falls strictly under 2 h in half-life. Query: N#Cc1cc2c(nc1N1CCC(F)(C(=O)NS(=O)(=O)Cc3ccccc3)CC1)COC2=O
Output: n

Task: Try the compound N#Cc1cc2c(nc1N1CCC(C(=O)NS(=O)(=O)Cc3ccccc3)CC1)COC2=O
Output: y

Task: Try the compound N#Cc1cc2c(nc1N1CCC(C(=O)NS(=O)(=O)c3ccc(Cl)s3)CC1)COC2=O
Output: n
